Field: pIC50. Provide a value for each of the compounds that follow.
- System tested: HDAC4 (Homo sapiens, UniProt P56524)
- Construct: Recombinant, full-length HDAC protein (BPS Biosciences) was incubated with fluorophore conjugated substrate
- Sequence (P56524 whole entry): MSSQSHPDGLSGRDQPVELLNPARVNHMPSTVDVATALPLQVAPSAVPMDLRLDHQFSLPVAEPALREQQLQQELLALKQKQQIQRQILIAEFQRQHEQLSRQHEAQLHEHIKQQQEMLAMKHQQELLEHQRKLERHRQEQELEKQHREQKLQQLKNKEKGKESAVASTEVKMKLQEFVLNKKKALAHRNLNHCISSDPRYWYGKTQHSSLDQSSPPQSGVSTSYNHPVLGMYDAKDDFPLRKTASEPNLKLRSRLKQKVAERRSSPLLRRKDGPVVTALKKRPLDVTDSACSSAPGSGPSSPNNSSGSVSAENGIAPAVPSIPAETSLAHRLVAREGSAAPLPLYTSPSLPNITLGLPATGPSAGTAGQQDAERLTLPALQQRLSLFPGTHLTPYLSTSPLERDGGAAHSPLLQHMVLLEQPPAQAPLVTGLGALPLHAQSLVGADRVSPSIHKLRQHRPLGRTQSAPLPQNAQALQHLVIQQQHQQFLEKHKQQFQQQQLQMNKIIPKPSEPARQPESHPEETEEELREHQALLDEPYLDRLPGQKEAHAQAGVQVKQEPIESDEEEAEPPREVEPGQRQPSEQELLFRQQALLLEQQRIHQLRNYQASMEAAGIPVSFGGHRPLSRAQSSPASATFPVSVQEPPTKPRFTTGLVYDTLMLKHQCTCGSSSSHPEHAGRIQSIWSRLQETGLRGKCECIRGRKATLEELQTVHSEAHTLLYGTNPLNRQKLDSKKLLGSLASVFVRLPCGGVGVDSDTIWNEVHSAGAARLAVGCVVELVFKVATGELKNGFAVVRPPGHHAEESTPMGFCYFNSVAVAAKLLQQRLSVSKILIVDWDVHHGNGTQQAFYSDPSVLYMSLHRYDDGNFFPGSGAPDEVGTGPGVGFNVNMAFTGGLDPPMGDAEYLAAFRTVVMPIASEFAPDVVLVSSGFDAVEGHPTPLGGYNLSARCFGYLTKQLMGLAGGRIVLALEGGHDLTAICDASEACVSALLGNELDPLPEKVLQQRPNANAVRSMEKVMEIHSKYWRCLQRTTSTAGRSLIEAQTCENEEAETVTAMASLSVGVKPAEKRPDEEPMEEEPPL
- Measurement notes: In vitro HDAC enzyme inhibition assay, HDAC4
- Condition summary: recombinant full-length HDAC4, substrate MAZ1675 10 μM
Answers are plain numbers, as −log10 of the molar value.

Here's what some known entries look like.
{"columns": ["Compound", "System tested", "pIC50"],
 "data": [
  ["O=C(NO)c1ccc(Cn2nnc3cc(Br)ccc32)cc1 [C5]", "HDAC4 (Homo sapiens, UniProt P56524)", 5.81],
  ["O=C(NO)c1ccc(Cn2c(C(F)(F)F)nc3cc(F)ccc32)cc1 [A3]", "HDAC4 (Homo sapiens, UniProt P56524)", 5.96],
  ["O=C(NO)c1ccc(Cn2nnc3ccccc32)cc1 [C1]", "HDAC4 (Homo sapiens, UniProt P56524)", 5.97],
  ["COc1ccc2c(c1)[nH]c(=O)n2Cc1ccc(C(=O)NO)cc1 [B7]", "HDAC4 (Homo sapiens, UniProt P56524)", 5.81],
  ["O=C(NO)c1ccc(Cn2c(=O)[nH]c3cc(Br)ccc32)cc1 [B5]", "HDAC4 (Homo sapiens, UniProt P56524)", 5.93]
]}

List the reported pIC50 of each compound below.
1. Cc1ccc2c(c1)[nH]c(=O)n2Cc1ccc(C(=O)NO)cc1 [B2]
2. O=C(NO)c1ccc(Cn2c(C(F)(F)F)nc3ccccc32)cc1 [A1]

(A)
1: 5.93; 2: 5.86

---

- System tested: HDAC9 (Homo sapiens)
- Construct: Recombinant, full-length HDAC protein (BPS Biosciences) was incubated with fluorophore conjugated substrate
- Sequence (Q9UKV0 whole entry): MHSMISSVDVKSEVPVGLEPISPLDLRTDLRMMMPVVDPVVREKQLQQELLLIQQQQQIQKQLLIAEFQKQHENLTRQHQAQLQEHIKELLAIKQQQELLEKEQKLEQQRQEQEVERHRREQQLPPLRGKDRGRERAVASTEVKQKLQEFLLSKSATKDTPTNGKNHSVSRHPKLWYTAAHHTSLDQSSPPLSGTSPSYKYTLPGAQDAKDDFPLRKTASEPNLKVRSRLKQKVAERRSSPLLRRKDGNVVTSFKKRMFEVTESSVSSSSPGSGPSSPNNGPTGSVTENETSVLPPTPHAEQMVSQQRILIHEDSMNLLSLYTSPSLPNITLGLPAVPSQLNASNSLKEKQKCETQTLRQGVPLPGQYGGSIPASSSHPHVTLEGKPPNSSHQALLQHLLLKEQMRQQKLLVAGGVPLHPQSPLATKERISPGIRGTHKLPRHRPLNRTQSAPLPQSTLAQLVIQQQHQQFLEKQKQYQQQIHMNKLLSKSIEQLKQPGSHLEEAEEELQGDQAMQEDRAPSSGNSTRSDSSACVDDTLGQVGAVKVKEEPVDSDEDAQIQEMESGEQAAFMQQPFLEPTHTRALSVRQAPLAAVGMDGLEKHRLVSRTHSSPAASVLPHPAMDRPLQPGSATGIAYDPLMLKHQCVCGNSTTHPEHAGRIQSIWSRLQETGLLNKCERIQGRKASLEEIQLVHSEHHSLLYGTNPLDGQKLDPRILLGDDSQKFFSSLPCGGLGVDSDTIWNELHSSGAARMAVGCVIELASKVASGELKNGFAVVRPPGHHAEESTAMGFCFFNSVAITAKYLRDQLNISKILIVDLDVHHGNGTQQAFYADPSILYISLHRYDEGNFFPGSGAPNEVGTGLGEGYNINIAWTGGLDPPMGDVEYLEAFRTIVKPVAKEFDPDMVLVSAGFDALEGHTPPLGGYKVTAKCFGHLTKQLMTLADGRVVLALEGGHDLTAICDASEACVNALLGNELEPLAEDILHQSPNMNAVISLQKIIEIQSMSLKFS
- Measurement notes: In vitro HDAC enzyme inhibition assay, HDAC9
- Condition summary: recombinant full-length HDAC9, substrate MAZ1675 26 μM
Measured parameter: pIC50
Give bare numbers, as −log10 of the molar value.

Study these solved cases before continuing.
{"columns": ["Compound", "System tested", "Measured"],
 "data": [
  ["COc1ccc2c(c1)[nH]c(=O)n2Cc1ccc(C(=O)NO)cc1 [B7]", "HDAC9 (Homo sapiens)", 5.91],
  ["Cc1ccc2c(c1)nc(C(F)(F)F)n2Cc1ccc(C(=O)NO)cc1 [A2]", "HDAC9 (Homo sapiens)", 6.23],
  ["O=C(NO)c1ccc(Cn2c(=O)[nH]c3cc(Br)ccc32)cc1 [B5]", "HDAC9 (Homo sapiens)", 6.09],
  ["O=C(NO)c1ccc(Cn2c(C(F)(F)F)nc3ccccc32)cc1 [A1]", "HDAC9 (Homo sapiens)", 5.99],
  ["O=C(NO)c1ccc(Cn2c(=O)[nH]c3ccccc32)cc1 [B1]", "HDAC9 (Homo sapiens)", 5.65],
  ["O=C(NO)c1ccc(Cn2nnc3cc(Cl)ccc32)cc1 [C4]", "HDAC9 (Homo sapiens)", 5.84]
]}

Give pIC50 for all compounds that follow.
1. Cc1ccc2c(c1)[nH]c(=O)n2Cc1ccc(C(=O)NO)cc1 [B2]
2. O=C(NO)c1ccc(Cn2c(=O)[nH]c3cc(F)ccc32)cc1 [B3]
3. O=C(NO)c1ccc(Cn2nnc3cc(F)ccc32)cc1 [C3]
4. O=C(NO)c1ccc(Cn2c(=O)[nH]c3cc(C(F)(F)F)ccc32)cc1 [B6]
5. O=C(NO)c1ccc(Cn2c(=O)[nH]c3cc(Cl)ccc32)cc1 [B4]
6. O=C(NO)c1ccc(Cn2nnc3ccccc32)cc1 [C1]
7. O=C(NO)c1ccc(Cn2cnc3ccccc32)cc1 [A7]
8. O=C(NO)c1ccc(Cn2nnc3cc(Br)ccc32)cc1 [C5]

(A)
1. 6.04
2. 5.84
3. 5.79
4. 6.15
5. 6.38
6. 5.96
7. 5.79
8. 5.96

State recorded pIC50 for all listed compounds.
1. O=C(NO)c1ccc(Cn2cnc3cc(Br)ccc32)cc1 [A11]
2. COc1ccc2c(c1)ncn2Cc1ccc(C(=O)NO)cc1 [A12]
3. COc1ccc2c(c1)nc(C(F)(F)F)n2Cc1ccc(C(=O)NO)cc1 [A6]
4. O=C(NO)c1ccc(Cn2cnc3cc(Cl)ccc32)cc1 [A10]

(A)
1. 5.99
2. 5.63
3. 6.14
4. 5.92

---

- System tested: HDAC4 (Homo sapiens, UniProt P56524)
- Construct: Recombinant, full-length HDAC protein (BPS Biosciences) was incubated with fluorophore conjugated substrate
- Measurement notes: In vitro HDAC enzyme inhibition assay, HDAC4
- Condition summary: recombinant full-length HDAC4, substrate MAZ1675 10 μM
Measured parameter: IC50 (µM)
Answers are plain numbers, in µM.

{"columns": ["Compound", "Unit annotation", "IC50"],
 "data": [
  ["O=C(NO)c1ccc(Cn2nnc3cc(Cl)ccc32)cc1 [C4]", "µM", 1.92],
  ["O=C(NO)c1ccc(Cn2c(C(F)(F)F)nc3cc(Cl)ccc32)cc1 [A4]", "µM", 1.38],
  ["O=C(NO)c1ccc(Cn2c(=O)[nH]c3cc(F)ccc32)cc1 [B3]", "µM", 1.72],
  ["Cc1ccc2c(c1)nc(C(F)(F)F)n2Cc1ccc(C(=O)NO)cc1 [A2]", "µM", 0.848]
]}

Next compound, please.
(Q) Tell me reported IC50 for O=C(NO)c1ccc(Cn2c(=O)[nH]c3ccccc32)cc1 [B1] , tested with HDAC4 (Homo sapiens, UniProt P56524).
(A) 2.23

---

- System tested: HDAC8 (Homo sapiens, UniProt Q9BY41)
- Construct: Recombinant, full-length HDAC protein (BPS Biosciences) was incubated with fluorophore conjugated substrate; purchased BPS Biosciences
- Sequence (Q9BY41 whole entry): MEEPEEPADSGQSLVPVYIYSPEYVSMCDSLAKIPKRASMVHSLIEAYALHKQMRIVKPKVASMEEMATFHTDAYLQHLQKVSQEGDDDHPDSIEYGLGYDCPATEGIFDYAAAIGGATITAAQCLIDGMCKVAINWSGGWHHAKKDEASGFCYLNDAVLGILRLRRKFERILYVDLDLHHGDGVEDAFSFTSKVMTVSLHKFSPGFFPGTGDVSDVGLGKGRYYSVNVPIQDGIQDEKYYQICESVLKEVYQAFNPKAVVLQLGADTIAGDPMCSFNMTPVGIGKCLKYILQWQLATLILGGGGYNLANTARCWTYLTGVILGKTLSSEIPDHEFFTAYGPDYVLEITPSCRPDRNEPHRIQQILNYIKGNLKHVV
- Measurement notes: In vitro HDAC enzyme inhibition assay, HDAC8
- Assay type: biochemical
- Condition summary: ratio of IC50 for HDAC8 relative to that of HDAC6
I'd be grateful if you could share measured HDAC8/HDAC6 in vitro selectivity for these entries.
Answers are plain numbers.

{"columns": ["Molecule smiles", "Measured"],
 "data": [
  ["O=C(NO)c1ccc(Cn2c(=O)[nH]c3ccccc32)cc1", 46328],
  ["Cc1ccc2c(c1)ncn2Cc1ccc(C(=O)NO)cc1", 2847],
  ["O=C(NO)c1ccc(Cn2cnc3cc(Cl)ccc32)cc1", 7524]
]}

Please state, for each entry, its recorded HDAC8/HDAC6 in vitro selectivity.
1. O=C(NO)c1ccc(Cn2cnc3ccccc32)cc1
2. O=C(NO)c1ccc(Cn2nnc3cc(Br)ccc32)cc1
3. O=C(NO)c1ccc(Cn2c(=O)[nH]c3cc(Br)ccc32)cc1
4. COc1ccc2c(c1)[nH]c(=O)n2Cc1ccc(C(=O)NO)cc1
5. Cc1ccc2c(c1)[nH]c(=O)n2Cc1ccc(C(=O)NO)cc1
6. O=C(NO)c1ccc(Cn2c(=O)[nH]c3cc(C(F)(F)F)ccc32)cc1
7. O=C(NO)c1ccc(Cn2c(C(F)(F)F)nc3cc(Cl)ccc32)cc1
8. O=C(NO)c1ccc(Cn2c(C(F)(F)F)nc3cc(F)ccc32)cc1

(A)
6573
16483
12655
21403
120780
48637
1240
2540

---

Exercise: for every item that follows, state its recorded IC50.
- System tested: HDAC5 (Homo sapiens)
- Construct: Recombinant, full-length HDAC protein (BPS Biosciences) was incubated with fluorophore conjugated substrate
- Sequence (Q9UQL6 whole entry): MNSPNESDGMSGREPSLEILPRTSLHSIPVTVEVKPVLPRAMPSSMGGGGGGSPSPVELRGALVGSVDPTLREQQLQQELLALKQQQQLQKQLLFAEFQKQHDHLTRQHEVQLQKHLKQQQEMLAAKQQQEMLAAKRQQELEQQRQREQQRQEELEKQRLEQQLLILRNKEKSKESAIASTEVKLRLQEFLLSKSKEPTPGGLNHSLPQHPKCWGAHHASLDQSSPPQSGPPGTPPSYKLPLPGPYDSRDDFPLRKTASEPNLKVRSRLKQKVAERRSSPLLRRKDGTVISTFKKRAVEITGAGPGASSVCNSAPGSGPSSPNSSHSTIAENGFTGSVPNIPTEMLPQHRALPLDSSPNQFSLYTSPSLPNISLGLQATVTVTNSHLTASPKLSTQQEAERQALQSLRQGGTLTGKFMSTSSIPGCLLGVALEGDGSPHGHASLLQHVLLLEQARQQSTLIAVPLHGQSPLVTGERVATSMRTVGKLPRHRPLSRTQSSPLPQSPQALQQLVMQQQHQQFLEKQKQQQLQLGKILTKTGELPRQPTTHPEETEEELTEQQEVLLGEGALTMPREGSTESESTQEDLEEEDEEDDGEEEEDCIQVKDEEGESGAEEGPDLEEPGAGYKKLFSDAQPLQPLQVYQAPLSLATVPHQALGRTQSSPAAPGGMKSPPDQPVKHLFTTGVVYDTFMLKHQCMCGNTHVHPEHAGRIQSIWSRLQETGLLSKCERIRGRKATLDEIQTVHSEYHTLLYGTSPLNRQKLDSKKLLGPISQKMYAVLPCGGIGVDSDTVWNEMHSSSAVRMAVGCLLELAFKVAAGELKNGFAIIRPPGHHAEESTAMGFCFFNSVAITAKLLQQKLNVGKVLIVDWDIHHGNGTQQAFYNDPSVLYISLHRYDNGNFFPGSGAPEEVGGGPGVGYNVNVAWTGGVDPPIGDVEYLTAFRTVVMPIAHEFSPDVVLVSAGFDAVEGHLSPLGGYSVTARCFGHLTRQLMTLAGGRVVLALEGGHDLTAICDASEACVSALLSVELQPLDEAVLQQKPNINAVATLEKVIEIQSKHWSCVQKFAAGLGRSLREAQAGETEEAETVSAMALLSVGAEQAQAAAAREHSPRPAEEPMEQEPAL
- Measurement notes: In vitro HDAC enzyme inhibition assay, HDAC5
- Condition summary: recombinant full-length HDAC5, substrate MAZ1675 40 μM
Give bare numbers, in nM.

Worked set:
{"columns": ["Molecule smiles", "Measured parameter", "Measured"],
 "data": [
  ["O=C(NO)c1ccc(Cn2nnc3cc(F)ccc32)cc1", "IC50", 1810],
  ["O=C(NO)c1ccc(Cn2cnc3cc(Cl)ccc32)cc1", "IC50", 668],
  ["O=C(NO)c1ccc(Cn2nnc3ccccc32)cc1", "IC50", 956],
  ["COc1ccc2c(c1)[nH]c(=O)n2Cc1ccc(C(=O)NO)cc1", "IC50", 1490],
  ["O=C(NO)c1ccc(Cn2c(=O)[nH]c3cc(C(F)(F)F)ccc32)cc1", "IC50", 762]
]}

# context switch: different compound, same IC50
(Q) Param item = O=C(NO)c1ccc(Cn2cnc3ccccc32)cc1 ; retrieve measured IC50.
(A) 958

---

- System tested: HDAC7 (Homo sapiens, UniProt Q8WUI4)
- Construct: Recombinant, full-length HDAC protein (BPS Biosciences) was incubated with fluorophore conjugated substrate; purchased BPS Biosciences
- Sequence (Q8WUI4 whole entry): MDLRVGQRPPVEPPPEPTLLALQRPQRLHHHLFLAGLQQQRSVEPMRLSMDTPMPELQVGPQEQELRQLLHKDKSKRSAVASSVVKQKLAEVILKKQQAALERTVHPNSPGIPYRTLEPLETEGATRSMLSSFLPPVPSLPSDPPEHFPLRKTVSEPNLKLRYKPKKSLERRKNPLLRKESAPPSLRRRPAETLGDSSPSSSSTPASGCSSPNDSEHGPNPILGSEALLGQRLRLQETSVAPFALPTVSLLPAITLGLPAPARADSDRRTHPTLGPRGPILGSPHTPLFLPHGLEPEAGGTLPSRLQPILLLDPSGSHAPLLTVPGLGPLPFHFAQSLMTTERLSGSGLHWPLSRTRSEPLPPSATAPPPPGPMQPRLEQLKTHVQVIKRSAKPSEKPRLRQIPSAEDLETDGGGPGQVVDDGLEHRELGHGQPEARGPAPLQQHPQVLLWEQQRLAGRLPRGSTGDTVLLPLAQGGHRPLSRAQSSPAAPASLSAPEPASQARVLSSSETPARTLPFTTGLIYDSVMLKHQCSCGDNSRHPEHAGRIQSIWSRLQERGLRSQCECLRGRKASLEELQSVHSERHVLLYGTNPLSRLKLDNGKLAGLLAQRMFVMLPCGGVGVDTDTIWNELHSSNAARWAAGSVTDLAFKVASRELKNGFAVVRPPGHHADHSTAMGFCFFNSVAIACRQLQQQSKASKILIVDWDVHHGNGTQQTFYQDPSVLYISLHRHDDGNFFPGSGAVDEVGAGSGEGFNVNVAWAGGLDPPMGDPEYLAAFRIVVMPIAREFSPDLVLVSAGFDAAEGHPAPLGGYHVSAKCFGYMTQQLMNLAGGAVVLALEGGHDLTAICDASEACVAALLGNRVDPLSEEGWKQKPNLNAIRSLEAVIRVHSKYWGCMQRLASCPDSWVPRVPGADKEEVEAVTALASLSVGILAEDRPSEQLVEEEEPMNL
- Measurement notes: In vitro HDAC enzyme inhibition assay, HDAC7
- Format: biochemical
- Condition summary: ratio of IC50 for HDAC7 relative to that of HDAC6
param class (str): category from HDAC7/HDAC6 in vitro selectivity; see ranges low bin = under 3000, mid bin = from 3000 up to 9000, high bin = 9000 and over

{"columns": ["Molecule smiles", "Class label"],
 "data": [
  ["O=C(NO)c1ccc(Cn2c(=O)[nH]c3ccccc32)cc1", "high bin"],
  ["COc1ccc2c(c1)ncn2Cc1ccc(C(=O)NO)cc1", "mid bin"],
  ["O=C(NO)c1ccc(Cn2cnc3ccccc32)cc1", "low bin"],
  ["O=C(NO)c1ccc(Cn2nnc3cc(Cl)ccc32)cc1", "mid bin"],
  ["O=C(NO)c1ccc(Cn2c(=O)[nH]c3cc(Br)ccc32)cc1", "high bin"]
]}

(Q) Bin this entry: COc1ccc2c(c1)[nH]c(=O)n2Cc1ccc(C(=O)NO)cc1
(A) high bin

(Q) Lookup O=C(NO)c1ccc(Cn2cnc3cc(F)ccc32)cc1
(A) mid bin

(Q) And for O=C(NO)c1ccc(Cn2c(C(F)(F)F)nc3cc(Cl)ccc32)cc1 ?
(A) low bin

(Q) Then O=C(NO)c1ccc(Cn2c(=O)[nH]c3cc(F)ccc32)cc1 ?
(A) high bin

Where do the numbers come from? From patent US20150197497A1.
